system: MALME-3M melanoma; test: NCI tumour cell line growth inhibition, 48 h
Entries and their GI50 values follow.

molecule: CSc1nc2c(c(=O)n1C)C(c1ccccc1)C1=C(N2)/C(=C/c2ccccc2)CCC1 (configuration not stated)
test_system: MALME-3M melanoma
result: 5870 nM
//
molecule: Cc1c(C(N)=O)sc2nc(C)n(/N=c3\scc(-c4ccccc4)n3Cc3ccccc3)c(=O)c12
test_system: MALME-3M melanoma
result: 2180 nM
//
molecule: FC(F)(F)c1cccc(-c2[nH]ncc2-c2nnnn2-c2ccccc2)c1
test_system: MALME-3M melanoma
result: 3660 nM
//
molecule: C(=N\Nc1ccc2ccccc2n1)/c1ccccn1
test_system: MALME-3M melanoma
result: 1350 nM
//
molecule: CC(=O)[CH-]C(=O)c1ccccc1.CC(=O)[CH-]C(=O)c1ccccc1.CC(=O)[CH-]C(=O)c1ccccc1.[Ga+3]
test_system: MALME-3M melanoma
result: 2610 nM
//
molecule: COc1cnccc1Nc1nc(-c2nn(Cc3c(F)cc(OCCO)cc3F)c3ccccc23)ncc1OC
test_system: MALME-3M melanoma
result: 2160 nM
//
molecule: COC(=O)CC1=C(C)/C(=C/c2[nH]c(-c3ccc[nH]3)cc2OC)N=C1C
test_system: MALME-3M melanoma
result: 720 nM
//
molecule: CN(C)c1ccc2[nH]c3c(C(N)=O)cc(=O)c(=O)c=3oc2c1
test_system: MALME-3M melanoma
result: 1810 nM

INPUT: Dear colleague, I am looking for the recorded GI50 of the following molecule: Cc1cc(N2CCOCC2)nc(NCc2cc(Nc3ccnc4cc(Cl)ccc34)ccc2F)n1
OUTPUT: 1980 nM

----------
tested on: HCT-15 colon; assay: NCI tumour cell line growth inhibition, 48 h; in the data active = GI50 below about 0.43 µM; inactive = the rest
Hi! Could you answer with just one of these? active, inactive

molecule: Cn1c(I)c(C#C[Si](C)(C)C)c(=O)[nH]c1=O
test_system: HCT-15 colon
label: inactive

INPUT: Entry COc1cnccc1Nc1nc(-c2nn(Cc3c(F)cc(OCCO)cc3F)c3ccccc23)ncc1OC : call = ?
OUTPUT: inactive

INPUT: What outcome does the record of this test show for O=C1/C(=C/c2ccc([N+](=O)[O-])o2)Oc2ccc(Cl)cc21 ?
OUTPUT: inactive

INPUT: Short answer needed: outcome of this test for C[C@]12CCC(=O)C[C@@H]1CC[C@@H]1[C@@H]2CC[C@]2(C)[C@@H](OC(=O)N(CCCl)N=O)CC[C@@H]12 ?
OUTPUT: inactive

INPUT: Identify the outcome logged in this assay for the molecule shown: COc1cc(-c2ccc[nH]2)[nH]c1/C=C1\N=C(C)C(CC(=O)OCC(C)(C)C)=C1C
OUTPUT: active

INPUT: Per the records of this test, what outcome belongs to Cc1ccc(-c2nc3sc(C)cn3c2/C=C2\C(=O)Nc3ccc(Cl)cc32)cc1 ?
OUTPUT: inactive

----------
tested on: SK-MEL-2 melanoma; experiment: NCI tumour cell line growth inhibition, 48 h
Where a SMILES comes first, the peptide text is derived from it. [ ]: non-standard residue; d: D form. The star is where a group is joined. ξ: configuration not given here. NMeF = CN[C@@H](Cc1ccccc1)C(=O)O; NMeV = CN[C@H](C(=O)O)C(C)C; ξNMeV = CNC(C(=O)O)C(C)C; Boc = CC(C)(C)OC(=O)*; OBn = c1ccc(CO*)cc1
Heads up, the class ranges for TGI are low bracket = under 6 µM, middle bracket = from 6 µM up to 30 µM, high bracket = 30 µM and over

compound: COc1cc(O)c(Cc2ccccc2O)c(O)c1C(=O)CCc1ccccc1
label: middle bracket

compound: COc1ccc(-c2cc(-c3ccc(Nc4ccnc5cc(Cl)ccc45)cc3)[nH]c(=O)c2C#N)cc1
label: high bracket

compound: COc1ccc(C2=NNC(=O)c3ccccc3N2c2nc(-c3cccs3)nc3cc(OC)c(OC)cc23)cc1
label: high bracket

compound: CC(=O)[CH-]C(=O)c1ccccc1.CC(=O)[CH-]C(=O)c1ccccc1.CC(=O)[CH-]C(=O)c1ccccc1.[Ga+3]
label: middle bracket

compound: O=C(CC(C(=O)c1cccs1)c1ccsc1)c1ccc(Cl)s1 (centres undefined)
label: high bracket

compound: COc1cc2c[n+](C)c3c4cc(OC)c(OCc5ccccc5)cc4c(OCc4ccccc4)cc3c2cc1OC
label: middle bracket

compound: CCN(C(=O)N[C@H](C(=O)N[C@@H](CSC)C(=O)N[C@@H](C)C(=O)OC)C(C)C)c1ccccc1
label: high bracket

compound: CCN(CC)CCC1CCCCN1CC(=O)N1c2cc(Cl)ccc2NC(=O)CC1C (centres undefined)
label: high bracket

INPUT: Category of CNC(=O)CNC(=O)N(C[C@@H]1CCCN1C(=O)[C@H](CC(C)C)NC(=O)OC(C)(C)C)C(C)C , please.
OUTPUT: high bracket

INPUT: Exercise: read the entry CC(C)C(C(=O)N(C)[C@H](C(=O)N1CCC[C@H]1C(=O)N(C)[C@@H](Cc1ccccc1)C(=O)OCc1ccccc1)C(C)C)N(C)C(=O)[C@@H](NC(=O)OC(C)(C)C)C(C)C (some centres undefined) (Boc-V[ξNMeV][NMeV]P[NMeF]-OBn) and state which class it falls under.
OUTPUT: high bracket

----------
tested on: OVCAR-5 ovarian; assay: NCI tumour cell line growth inhibition, 48 h; in the data active = GI50 below about 0.43 µM; inactive = the rest
Use one of these outcomes when replying: active, inactive

# example entries with known answers
structure_smiles: CCC(=O)Nc1nnc(Cc2ccc(OC)c(OC)c2)s1
test_system: OVCAR-5 ovarian
label: inactive
//
structure_smiles: C[C@]12CCC(=O)C[C@@H]1CC[C@@H]1[C@@H]2CC[C@]2(C)[C@@H](OC(=O)N(CCCl)N=O)CC[C@@H]12
test_system: OVCAR-5 ovarian
label: inactive
//
structure_smiles: O=C1C(=C([O-])c2ccccc2)C(=O)c2ccccc21.O=C1C(=C([O-])c2ccccc2)C(=O)c2ccccc21.[Ni+2]
test_system: OVCAR-5 ovarian
label: inactive
//
structure_smiles: CN1CCN(c2ccc(NC3=CC(=O)c4ncncc4C3=O)cc2)CC1
test_system: OVCAR-5 ovarian
label: active
//
structure_smiles: CCc1c(C)c2cc(-n3c(-c4ccc(OC)cc4)csc3=N)c(O)c(C)c2oc1=O
test_system: OVCAR-5 ovarian
label: inactive

INPUT: Assay outcome for Cc1cc(N2CCOCC2)nc(NCc2cc(Nc3ccnc4cc(Cl)ccc34)ccc2F)n1 : what was it?
OUTPUT: inactive

INPUT: For COc1cc(C(=O)n2nc(N)c3c(C)cc(C)nc32)cc(OC)c1OC , which call appears in the assay record?
OUTPUT: inactive

INPUT: Status in this test for COc1ccc2c3/c(=C\c4ccc(N(C)C)cc4)c4ccccc4n3[n+](C)c2c1 ?
OUTPUT: inactive

INPUT: So what was the verdict on COc1ccc2c(c1)-c1c(c3cc(OC)ccc3n(CCN(C)C)c1=O)C2=O in this test?
OUTPUT: inactive

----------
TGI by entry:
tested on: HL-60(TB) leukemia; assay: NCI tumour cell line growth inhibition, 48 h
Where a SMILES comes first, the peptide text is derived from it. [ ]: non-standard residue; d: D form. The star is where a group is joined. ξ: configuration not given here. NMeF = CN[CH](Cc1ccccc1)C(=O)O; ξNMe2Val = CC(C)C(C(=O)*)N(C)C; NMeV = CN[CH](C(=O)O)C(C)C; OtBu = CC(C)(C)O*
Give the value in µM but do not write µM after it.

INPUT: So what's the measured TGI for this one? CC(C)C(C(=O)N(C)C(Cc1ccccc1)C(=O)N(C)C(C(=O)N(C)C(C(=O)N1CCCC1C(=O)OC(C)(C)C)C(C)C)C(C)C)N(C)C (configuration not stated) (ξNMe2Val-[NMeF][NMeV][NMeV]P-OtBu; configuration not given here)
OUTPUT: 94.7

----------
system: MDA-MB-435
Returns: one label drawn from active, inactive

The examples below pair each entry with its known result.
structure_smiles: Clc1ccc(-c2nc(NCc3ccco3)c3ccccc3n2)c(Cl)c1
test_system: MDA-MB-435
label: inactive

structure_smiles: COc1ccc2c(c1)-c1c(c3cc(OC)ccc3n(CCN(C)C)c1=O)C2=O
test_system: MDA-MB-435
label: inactive

structure_smiles: Cc1ccc(-c2nc3sc(C)cn3c2/C=C2\C(=O)Nc3ccc(Cl)cc32)cc1
test_system: MDA-MB-435
label: inactive

structure_smiles: CC(=O)c1c(C)c2cnc(Nc3ccc(N4CCNCC4)cn3)nc2n(C2CCCC2)c1=O
test_system: MDA-MB-435
label: inactive

INPUT: Hi team, can someone confirm the assay call for O=C1/C(=C/c2ccc([N+](=O)[O-])o2)Oc2ccc(Cl)cc21 ?
OUTPUT: inactive

INPUT: Record lookup: outcome of this test for O=C1C(Cl)=C(NCCCN(CCCNC2=C(Cl)C(=O)c3ccccc3C2=O)C2=C(Cl)C(=O)c3ccccc3C2=O)C(=O)c2ccccc21 ?
OUTPUT: inactive

INPUT: How did this test come out for CSc1ccc(C(=O)/C=C/c2ccc(Cl)cc2Cl)cc1 ?
OUTPUT: inactive

INPUT: Can you look up the reported call for COc1cc(C(=O)O[C@H](C(=O)NCCCCNC(=O)[C@@H](OC(=O)c2cc(OC)cc3c(C)cccc23)[C@]2(C)CO2)[C@]2(C)CO2)c2cccc(C)c2c1 for me?
OUTPUT: active

INPUT: I'd appreciate the recorded outcome for COc1cc(-c2ccc[nH]2)[nH]c1/C=C1\N=C(C)C(CC(=O)OCC(C)(C)C)=C1C from this test.
OUTPUT: active

The reported numbers originate from PubChem BioAssay (NCI).
